The reported numbers originate from the supplement of paper PMC4862054.

test system: CAL-148; assay: normalised response (% of control), CellTiter-Glo; higher = more viable cells (100 = DMSO, 0 = benzethonium chloride kill control); details: incubation time: 72 h
EXPERIMENTAL_READOUT: normalised response (%)
Just the number in %, nothing appended.

See these solved cases before continuing.
Cn1c(Nc2ccc(C(F)(F)F)cc2)nc2cc(Oc3ccnc(-c4ncc(C(F)(F)F)[nH]4)c3)ccc21 [RAF265] (1 nM) : 112
C#Cc1cccc(Nc2ncnc3cc(OCCOC)c(OCCOC)cc23)c1 [Erlotinib] (10 nM) : 113
Oc1nc(-c2ccc(C(F)(F)F)cc2)nc2c1CSCC2 [XAV-939] (10 nM) : 101

Provide only the value of recorded normalised response for C[C@]12CC[C@@H]3c4ccc(O)cc4C[C@@H](CCCCCCCCC[S+]([O-])CCCC(F)(F)C(F)(F)F)[C@H]3[C@@H]1CC[C@@H]2O (some centres undefined) [Fulvestrant] (100 nM)
97.4

Return value of normalised response for input Clc1ccc(Nc2nnc(Cc3ccncc3)c3ccccc23)cc1 [Vatalanib] (1 nM) , no commentary.
102

Provide normalised response value for the following molecule: CCC1(c2ccc(N)cc2)CCC(=O)NC1=O (centres undefined) [Aminoglutethimide] (10 nM)
100

====

test system: HCC1599; assay: normalised viability (% of control), CellTiter-Blue; higher = more viable cells (about 100 = DMSO control); details: 1000 nM; incubation time: 72 h
# normalised viability per entry
The response must be a number in % with no trailing unit.

Take a look at these entries with their results.
Cn1c(CCCC(=O)O)nc2cc(N(CCCl)CCCl)ccc21 [Bendamustine] : 105
CC(C)Cn1cnc2c(N)nc3ccccc3c21 [Imiquimod] : 100
C=C(c1ccc(C(=O)O)cc1)c1cc2c(cc1C)C(C)(C)CCC2(C)C [Bexarotene] : 72.2
CCC1(c2ccc(N)cc2)CCC(=O)NC1=O (stereo unspecified) [Aminoglutethimide] : 92.7
Cc1ccc(C(=O)Nc2ccc(CN3CCN(C)CC3)c(C(F)(F)F)c2)cc1C#Cc1cnc2cccnn12 [Ponatinib] : 64.9

Proceed to the following item.
Fill in reported normalised viability for this entry: Cc1ccc(C(=O)N(CCCN)[C@@H](c2oc3cc(Cl)ccc3c(=O)c2Cc2ccccc2)C(C)C)cc1
81.7

====

tested on: MCF-10A; assay: normalised response (% of control), CellTox Green; higher = less cell death (100 = DMSO, 0 = benzethonium chloride kill control); conditions: incubation time: 72 h
EXPERIMENTAL_READOUT: normalised response (%)
Respond with the bare value in %.

CCC1=C[C@@H]2CN(C1)Cc1c([nH]c3ccccc13)[C@@](C(=O)OC)(c1cc3c(cc1OC)N(C)[C@H]1[C@@](O)(C(=O)OC)[C@H](OC(C)=O)[C@]4(CC)C=CCN5CC[C@]31[C@@H]54)C2 [Vinorelbine] (100 nM) : -12.8
N[C@@H](CSC(c1ccccc1)(c1ccccc1)c1ccccc1)C(=O)O [S-trityl-L-cysteine] (400 nM) : 109

Then this compound:
Identify normalised response associated with the compound Cc1ccc(-n2nc(C(C)(C)C)cc2NC(=O)Nc2ccc(OCCN3CCOCC3)c3ccccc23)cc1 [Doramapimod] (10000 nM)
101

====

system: BT-474; test: normalised response (% of control), CellTox Green; higher = less cell death (100 = DMSO, 0 = benzethonium chloride kill control); conditions: incubation time: 72 h
EXPERIMENTAL_READOUT: normalised response (%)
Write the number in % without appending the unit.

C[C@@H](Oc1cc(-c2cnn(C3CCNCC3)c2)cnc1N)c1c(Cl)ccc(F)c1Cl [Crizotinib] (10 nM) : 100
CN(N=O)C(=O)N[C@@H](C=O)[C@@H](O)[C@H](O)[C@H](O)CO [Streptozocin] (100 nM) : 103
N.N.[Cl][Pt][Cl] [Cisplatin] (100 nM) : 99.2
Cn1c(Nc2ccc(C(F)(F)F)cc2)nc2cc(Oc3ccnc(-c4ncc(C(F)(F)F)[nH]4)c3)ccc21 [RAF265] (1000 nM) : 98.1
CNCc1ccc(-c2[nH]c3cc(F)cc4c3c2CCNC4=O)cc1 [Rucaparib] (100 nM) : 95.5

Now consider the entry below.
Provide normalised response value for the following compound: C#Cc1cccc(Nc2ncnc3cc(OCCOC)c(OCCOC)cc23)c1 [Erlotinib] (10000 nM)
83.9
